Tested on: NCI/ADR-RES
Experiment: NCI tumour cell line growth inhibition, 48 h
Active and inactive are the calls of the source. Rule as the data show it: active = GI50 up to about 1.1 µM and inactive = higher.
Classes used: active, inactive

>  <compound>
CCOC(=O)c1cn2c(ccc3sc4ccccc4c(=O)c32)n1

>  <group label>
inactive

$$$$
>  <compound>
O=C(O)C12C3CCC(O3)C1(C(=O)O)C1CCC2O1 (configuration not stated)

>  <group label>
inactive

$$$$
>  <compound>
CN/C(N)=N/N=C1/C(=O)Nc2ccccc21

>  <group label>
inactive

$$$$
>  <compound>
C1=CC2=CC=CC3c4nc5ccc6ccccc6c5nc4C(=C1)C23 (configuration not stated)

>  <group label>
inactive

$$$$
>  <compound>
N=C(N)C(/N=N\c1ccccc1)C(N)=O (configuration not stated)

>  <group label>
inactive

$$$$
>  <compound>
C[C@H]1CCC2C(OC(=O)[C@@H]2CN(C)C)[C@]2(C)C(=O)C=CC12O (some centres not stated)

>  <group label>
inactive

$$$$
>  <compound>
NC(=O)CC(N)C(N)=O (configuration not stated)

>  <group label>
inactive

$$$$
>  <compound>
CCC/C(Cl)=N\OC(=O)Nc1cccc(C(F)(F)F)c1

>  <group label>
inactive

$$$$
>  <compound>
C/C(=N\NC(=S)N1CCC1)c1ccccn1

>  <group label>
active

$$$$
>  <compound>
S=C(S)NCC1CCC(CNC(=S)S)CC1 (configuration not stated)

>  <group label>
inactive

$$$$
>  <compound>
CN(C)CC1CCC(CN(C)C)C1=O (configuration not stated)

>  <group label>
inactive

$$$$
>  <compound>
O=c1[nH]nc(NCc2ccccc2)c2nnn(Cc3ccccc3)c12

>  <group label>
inactive

$$$$
